TESTED_TARGET: Epidermal growth factor receptor (Homo sapiens)
Sequence (P00533 whole entry): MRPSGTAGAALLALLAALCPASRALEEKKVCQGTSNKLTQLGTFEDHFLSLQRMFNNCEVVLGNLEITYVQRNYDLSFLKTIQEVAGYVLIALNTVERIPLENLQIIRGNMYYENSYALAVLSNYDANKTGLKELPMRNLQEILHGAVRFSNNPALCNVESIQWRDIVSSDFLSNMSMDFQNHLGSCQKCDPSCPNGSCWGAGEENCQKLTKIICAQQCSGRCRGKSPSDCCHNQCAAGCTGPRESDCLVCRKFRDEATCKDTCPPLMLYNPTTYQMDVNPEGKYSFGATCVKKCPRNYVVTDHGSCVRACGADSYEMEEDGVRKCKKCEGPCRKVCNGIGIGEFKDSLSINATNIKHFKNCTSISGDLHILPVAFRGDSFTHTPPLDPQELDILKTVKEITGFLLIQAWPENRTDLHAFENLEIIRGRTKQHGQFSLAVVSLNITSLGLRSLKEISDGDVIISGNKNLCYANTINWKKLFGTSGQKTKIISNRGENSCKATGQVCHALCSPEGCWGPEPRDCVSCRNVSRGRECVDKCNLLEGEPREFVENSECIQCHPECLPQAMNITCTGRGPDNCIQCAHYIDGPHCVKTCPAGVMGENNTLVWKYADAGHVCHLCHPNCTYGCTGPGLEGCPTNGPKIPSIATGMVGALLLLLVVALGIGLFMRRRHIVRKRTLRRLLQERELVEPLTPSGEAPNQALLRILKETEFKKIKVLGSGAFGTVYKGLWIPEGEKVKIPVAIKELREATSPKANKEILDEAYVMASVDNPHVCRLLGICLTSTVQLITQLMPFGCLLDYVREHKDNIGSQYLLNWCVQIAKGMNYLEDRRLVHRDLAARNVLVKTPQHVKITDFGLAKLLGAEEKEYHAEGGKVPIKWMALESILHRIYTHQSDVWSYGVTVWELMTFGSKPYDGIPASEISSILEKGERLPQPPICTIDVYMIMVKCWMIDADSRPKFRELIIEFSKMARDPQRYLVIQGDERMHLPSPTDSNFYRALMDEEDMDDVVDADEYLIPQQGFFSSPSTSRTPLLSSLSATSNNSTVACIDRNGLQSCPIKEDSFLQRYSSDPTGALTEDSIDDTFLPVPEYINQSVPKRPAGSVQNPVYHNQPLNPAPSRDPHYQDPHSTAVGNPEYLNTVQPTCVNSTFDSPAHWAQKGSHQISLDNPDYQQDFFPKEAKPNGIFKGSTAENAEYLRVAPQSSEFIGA
ASSAY_TEXT: Inhibition of EGFR phosphorylation in human A431 cells
pEC50: −log10 of the molar value.
Each entry below carries its recorded pEC50.

COc1cc2nccc(Oc3ccc(C(=O)Nc4ccccn4)cc3)c2cc1NC(=O)C#CCCN1CCOCC1    < 6.00

Kindly consider the entry below.
pEC50 lookup needed for CC#CC(=O)Nc1cc2c(Oc3ccc(C(=O)Nc4ccccn4)cc3)ccnc2cc1OCCN1CCOCC1 , thanks. < 6.00

---

Each entry below carries its recorded pIC50.
TESTED_TARGET: UniProtKB P52333
Sequence (P52333 whole entry, the tested form may be a part): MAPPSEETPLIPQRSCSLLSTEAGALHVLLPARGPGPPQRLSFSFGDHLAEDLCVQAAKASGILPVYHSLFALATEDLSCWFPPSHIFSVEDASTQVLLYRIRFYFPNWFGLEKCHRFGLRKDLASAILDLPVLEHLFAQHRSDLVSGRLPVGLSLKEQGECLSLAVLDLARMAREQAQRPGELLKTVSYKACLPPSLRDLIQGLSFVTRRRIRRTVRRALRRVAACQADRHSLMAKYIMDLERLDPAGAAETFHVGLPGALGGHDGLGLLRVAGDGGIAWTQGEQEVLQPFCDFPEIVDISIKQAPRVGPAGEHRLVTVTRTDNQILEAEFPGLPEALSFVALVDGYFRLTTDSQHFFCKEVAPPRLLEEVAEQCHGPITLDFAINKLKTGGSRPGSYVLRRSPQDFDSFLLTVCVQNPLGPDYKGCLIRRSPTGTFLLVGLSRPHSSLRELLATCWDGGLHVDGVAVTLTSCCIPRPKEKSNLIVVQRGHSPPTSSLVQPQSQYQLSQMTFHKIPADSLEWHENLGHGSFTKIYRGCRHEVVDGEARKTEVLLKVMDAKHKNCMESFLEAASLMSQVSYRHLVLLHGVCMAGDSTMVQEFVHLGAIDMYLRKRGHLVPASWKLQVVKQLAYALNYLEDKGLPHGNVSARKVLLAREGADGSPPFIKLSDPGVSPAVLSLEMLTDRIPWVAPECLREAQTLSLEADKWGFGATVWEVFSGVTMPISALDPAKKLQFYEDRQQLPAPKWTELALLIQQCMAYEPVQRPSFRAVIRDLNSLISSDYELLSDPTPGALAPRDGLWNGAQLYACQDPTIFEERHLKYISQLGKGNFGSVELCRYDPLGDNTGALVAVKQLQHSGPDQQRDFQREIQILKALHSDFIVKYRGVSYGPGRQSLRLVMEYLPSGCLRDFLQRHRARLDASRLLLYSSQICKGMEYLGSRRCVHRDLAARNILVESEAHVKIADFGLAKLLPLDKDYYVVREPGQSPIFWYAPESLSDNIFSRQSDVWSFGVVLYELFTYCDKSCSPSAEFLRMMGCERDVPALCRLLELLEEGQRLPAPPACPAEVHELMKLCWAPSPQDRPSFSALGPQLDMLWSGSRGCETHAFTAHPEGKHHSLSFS
ASSAY_TEXT: Inhibition of recombinant human GST-tagged JAK3 catalytic domain (781 to 1124 residues) expressed in baculovirus expression system using tyrosine-6 peptide as substrate preincubated for 1 hr in presence of ATP by Z'-LYTE assay
Please report pIC50 as the negative decimal logarithm of the molar concentration, giving only the number.

C=CC(=O)Nc1ccc2nccc(Oc3ccc(C(=O)Nc4cc(CC)ccn4)cc3)c2c1    6.08

pIC50 lookup needed for COc1cc2nccc(Oc3ccc(C(=O)Nc4ccccn4)cc3)c2cc1NC(=O)C#CCCN1CCOCC1 , thanks. 6.76

---

TESTED_TARGET: Tyrosine-protein kinase TXK (Homo sapiens, UniProt P42681)
Sequence (P42681 whole entry): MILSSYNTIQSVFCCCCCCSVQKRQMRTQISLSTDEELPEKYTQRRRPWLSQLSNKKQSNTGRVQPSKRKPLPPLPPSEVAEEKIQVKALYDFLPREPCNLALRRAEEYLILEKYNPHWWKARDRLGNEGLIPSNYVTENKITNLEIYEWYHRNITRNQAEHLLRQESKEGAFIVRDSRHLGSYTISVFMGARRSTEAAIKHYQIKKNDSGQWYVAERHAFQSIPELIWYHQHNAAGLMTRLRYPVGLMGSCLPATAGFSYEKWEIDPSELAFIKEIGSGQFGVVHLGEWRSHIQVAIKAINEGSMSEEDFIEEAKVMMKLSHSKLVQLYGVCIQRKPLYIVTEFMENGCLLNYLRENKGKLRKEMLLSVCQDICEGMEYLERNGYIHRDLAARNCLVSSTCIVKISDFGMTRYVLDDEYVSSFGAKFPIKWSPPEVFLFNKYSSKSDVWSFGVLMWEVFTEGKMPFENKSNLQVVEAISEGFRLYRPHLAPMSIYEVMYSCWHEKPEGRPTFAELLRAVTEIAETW
ASSAY_TEXT: Inhibition of recombinant human N-terminal GST-tagged TXK (260 to 527 residues) expressed in baculovirus expression system using tyrosine-6 peptide as substrate preincubated for 1 hr in presence of ATP by Z'-LYTE assay
Each entry below carries its recorded IC50.
Write the number in nM without appending the unit.

C=CC(=O)Nc1ccc2nccc(Oc3ccc(C(=O)Nc4cc(CC)ccn4)cc3)c2c1    294
CC#CC(=O)Nc1cc2c(Oc3ccc(C(=O)Nc4ccccn4)cc3)ccnc2cc1OCCN1CCOCC1    229

IC50 lookup needed for COc1cc2nccc(Oc3ccc(C(=O)Nc4ccccn4)cc3)c2cc1NC(=O)C#CCCN1CCOCC1 , thanks. 19

---

Each entry below carries its recorded pIC50.
TESTED_TARGET: Tyrosine-protein kinase Blk (Homo sapiens)
Sequence (P51451 whole entry, the tested form may be a part): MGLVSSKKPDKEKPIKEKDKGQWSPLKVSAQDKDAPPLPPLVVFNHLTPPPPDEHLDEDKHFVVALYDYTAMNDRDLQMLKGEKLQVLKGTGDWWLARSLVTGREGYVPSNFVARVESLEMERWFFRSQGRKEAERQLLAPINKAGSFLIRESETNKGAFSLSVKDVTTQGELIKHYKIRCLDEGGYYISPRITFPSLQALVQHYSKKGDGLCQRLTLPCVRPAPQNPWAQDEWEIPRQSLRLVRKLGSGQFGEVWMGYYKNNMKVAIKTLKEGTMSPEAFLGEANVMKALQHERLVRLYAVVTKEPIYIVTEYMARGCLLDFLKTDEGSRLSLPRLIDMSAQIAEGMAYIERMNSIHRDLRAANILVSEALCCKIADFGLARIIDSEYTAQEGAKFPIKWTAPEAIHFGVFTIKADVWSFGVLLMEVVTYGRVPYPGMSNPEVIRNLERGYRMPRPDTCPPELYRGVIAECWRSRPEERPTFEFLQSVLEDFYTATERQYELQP
ASSAY_TEXT: Inhibition of recombinant full length human His-tagged BLK cytoplasmic domain expressed in baculovirus expression system using tyrosine-1 peptide as substrate preincubated for 1 hr in presence of ATP by Z'-LYTE assay
Please report pIC50 as the negative decimal logarithm of the molar concentration, giving only the number.

pIC50 lookup needed for COc1cc2nccc(Oc3ccc(C(=O)Nc4ccccn4)cc3)c2cc1NC(=O)C#CCCN1CCOCC1 , thanks. 8.08

pIC50 lookup needed for C=CC(=O)Nc1ccc2nccc(Oc3ccc(C(=O)Nc4cc(CC)ccn4)cc3)c2c1 , thanks. 7.67

pIC50 lookup needed for CC#CC(=O)Nc1cc2c(Oc3ccc(C(=O)Nc4ccccn4)cc3)ccnc2cc1OCCN1CCOCC1 , thanks. 7.14
